- Tested on: SK-BR-3
- assay_name: SRB colorimetric cell growth inhibition assay, SK-BR-3
- Assay type: cell-based
- protocol_conditions: Homo sapiens; SK-BR-3; GI=growth inhibition; read-out: GI50 SK-BR-3
- Procedure: The finality of these assays is to interrupt the growth of an “in vitro” tumor cell culture by means a continued exhibition of the cells to the sample to be testing. A colorimetric type of assay, using sulforhodamine B (SRB) reaction has been adapted for a quantitative measurement of cell growth and viability (following the technique described by P. A. Skehan, et al., J. Natl. Cancer Inst. 1990, 82, 1107-1112). […] The values for mean +/− SD of data from triplicate wells are calculated. […]
Below: a set of entries, each annotated with reported GI50.
Provide the reading as a plain figure in nM.

Solved entries:
CC[C@H](C)[C@H](NC(=O)OC(C)(C)C)C(=O)Oc1ccc(-c2c3c4cc(OC)c(OC(=O)[C@@H](NC(=O)OC(C)(C)C)[C@@H](C)CC)cc4oc(=O)c3n3ccc4cc(OC(=O)[C@@H](NC(=O)OC(C)(C)C)[C@@H](C)CC)c(OC)cc4c23)cc1OC : 5010
COc1cc(-c2c3n(c4c(=O)oc5cc(OC(=O)[C@H](C)NC(=O)[C@H](C)NC(=O)OC(C)(C)C)c(OC)cc5c24)CCc2cc(OC(=O)[C@H](C)NC(=O)[C@H](C)NC(=O)OC(C)(C)C)c(OC)cc2-3)ccc1OC(=O)[C@H](C)NC(=O)[C@H](C)NC(=O)OC(C)(C)C : 1140
COc1cc(-c2c3n(c4c(=O)oc5cc(OC(=O)[C@H](NC(=O)OC(C)(C)C)C(C)C)c(OC)cc5c24)CCc2cc(OC(=O)[C@H](NC(=O)OC(C)(C)C)C(C)C)c(OC)cc2-3)ccc1OC(=O)[C@H](NC(=O)OC(C)(C)C)C(C)C : 1180

// map COc1cc(-c2c3n(c4c(=O)oc5cc(OC(=O)[C@@H](N)Cc6c[nH]c7ccccc67)c(OC)cc5c24)CCc2cc(OC(=O)[C@@H](N)Cc4c[nH]c5ccccc45)c(OC)cc2-3)ccc1OC(=O)[C@@H](N)Cc1c[nH]c2ccccc12 to recorded GI50 (system: SK-BR-3)
653

Cool, now COc1cc(-c2c3c4cc(OC)c(OC(=O)[C@@H](NC(=O)OC(C)(C)C)C(C)C)cc4oc(=O)c3n3ccc4cc(OC(=O)[C@@H](NC(=O)OC(C)(C)C)C(C)C)c(OC)cc4c23)ccc1OC(=O)[C@@H](NC(=O)OC(C)(C)C)C(C)C
448

Cool, now COc1cc(-c2c3n(c4c(=O)oc5cc(OC(=O)[C@H](Cc6c[nH]c7ccccc67)NC(=O)OC(C)(C)C)c(OC)cc5c24)CCc2cc(OC(=O)[C@H](Cc4c[nH]c5ccccc45)NC(=O)OC(C)(C)C)c(OC)cc2-3)ccc1OC(=O)[C@H](Cc1c[nH]c2ccccc12)NC(=O)OC(C)(C)C
242

Cool, now COc1cc(-c2c3c4cc(OC)c(OC(=O)[C@@H](N)CCCCNC(=O)OCc5ccccc5)cc4oc(=O)c3n3ccc4c(OC(=O)[C@@H](N)CCCCNC(=O)OCc5ccccc5)c(OC)c(OC)cc4c23)ccc1OC(=O)[C@@H](N)CCCCNC(=O)OCc1ccccc1
122

FYI, the data here is from patent US7396837B2.
